Test system: LTB4 biosynthesis in human whole blood
Test: Human whole blood assay (hWB): inhibition of LTB4 biosynthesis after A23187 stimulation, ELISA
Assay type: cell-based
Conditions: human whole blood diluted 1:3, 10 μg/ml calcium ionophore A23187, LTB4 by ELISA; read-out: hWB IC50
Description: Compounds are tested in a human whole blood assay (hWB) to test their ability to inhibit LTB4 biosynthesis in a human cellular system. To this end, fresh blood is collected in heparinized vacutainers by venipuncture from volunteers. […] The data is analyzed in GraphPad Prism (GraphPad software Inc.) using non-linear regression to determine IC50 values of LTA4H inhibitors.
endpoint_name: IC50 (nM)

Known IC50 results, listed for orientation:
• N[C@H](CC(=O)O)Cn1nnc(-c2cccc(Oc3cc(F)cc(F)c3)c2)n1 = 294
• NC(=O)C[C@H](N)Cc1nc(-c2ccc(Oc3ccc(Cl)cc3)cc2)no1 = 218
• N[C@H](CC(=O)O)Cn1nnc(-c2cccc(Oc3nc4ccccc4s3)c2)n1 = 209
• Cc1ccc(Oc2ccc(-c3nnn(C[C@@H](N)CC(=O)O)n3)cc2)cc1 = 173
• N[C@@H](CC(=O)O)Cc1nc(-c2ccc(Oc3ccc(Cl)cc3)cc2)no1 = 126

[1] N[C@H](CC(=O)O)Cn1nnc(-c2ccc(Oc3ccc(F)c(Cl)c3)cc2)n1
[2] N[C@@H](CC(=O)O)Cn1cc(-c2ccc(Oc3ccc(Cl)cc3)cc2)cn1
[3] N[C@H](CC(=O)O)Cn1nnc(-c2cccc(OCCc3ccccc3)c2)n1
# ascending order, key=IC50 Put the labels in the order asked and list them.
3, 1, 2

[1] N[C@H](CC(=O)O)Cn1nnc(-c2ccc(Oc3ccc(C(F)(F)F)cn3)cc2)n1
[2] N[C@H](CC(=O)O)Cn1nnc(-c2cccc(Oc3ccc(Cl)cc3)c2)n1
# compare IC50 for 1 vs 2 ; return the one with the smaller value Write down the label attached to your selection.
1
(1: 270 nM, 2: 396 nM)
